- System: CCRF-CEM leukemia
- assay-summary: NCI tumour cell line growth inhibition, 48 h
parameter-measured: TGI

>>> value("O=C(O)C(Cc1ccccc1)N1C(=O)/C(=C/C(Cl)=C/c2ccc([N+](=O)[O-])cc2)SC1=S (stereo not drawn)")
"> 100 µM"
>>> value("COc1cc(/C=C2\\N=C(c3ccccc3)N(c3cc4cc(Sc5ccccc5)ccc4[nH]3)C2=O)ccc1O")
"> 50 µM"
>>> value("CCOC(=O)NN1C(=O)C(=P(c2ccccc2)(c2ccccc2)c2ccccc2)C(C(=O)OC)=C1C")
"> 100 µM"

====

- Tested on: COLO 205 colon
- assay-summary: NCI tumour cell line growth inhibition, 48 h
parameter-measured: GI50

>>> value("CSC(=S)NCc1cn(C)c2ccccc12")
"17.5 µM"
>>> value("C=C(CN1CCN(c2ccccn2)CC1)c1ccc(C(=O)Nc2ccccc2N)cc1")
"1.71 µM"
>>> value("CSCc1ncc(-c2ccc(C(F)(F)F)cc2)c(NC2CCCCCC2)n1")
"> 10 µM"
>>> value("CC(C)(O)c1cc(Nc2cc(Oc3cn(C4CC4)nc3C3CCOCC3)ccn2)ccn1")
"60.9 µM"
